molecular target: 5-HT3 (Homo sapiens, UniProt P46098); assay: Compound affinity for the human 5-HT3 receptor (Assay B), SPA radioligand binding with [9-methyl-3H]BRL-43694; set-up: purchased Perkin Elmer; details: Assay B (method B unless otherwise annotated); read-out: 5-HT3 Ki
Sequence (P46098 24-478): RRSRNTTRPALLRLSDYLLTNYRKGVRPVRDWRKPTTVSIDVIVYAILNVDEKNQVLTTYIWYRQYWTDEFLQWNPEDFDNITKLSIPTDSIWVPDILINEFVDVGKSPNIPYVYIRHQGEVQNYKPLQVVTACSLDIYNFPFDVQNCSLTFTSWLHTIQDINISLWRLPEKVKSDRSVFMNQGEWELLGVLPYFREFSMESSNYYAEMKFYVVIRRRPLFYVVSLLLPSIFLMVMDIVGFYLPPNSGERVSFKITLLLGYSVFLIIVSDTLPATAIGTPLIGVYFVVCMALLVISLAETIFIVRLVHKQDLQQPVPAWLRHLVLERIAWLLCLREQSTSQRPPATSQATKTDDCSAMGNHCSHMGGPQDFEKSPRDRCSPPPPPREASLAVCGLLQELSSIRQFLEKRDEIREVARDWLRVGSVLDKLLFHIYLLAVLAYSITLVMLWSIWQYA
Counter-ions that a name gives are not always drawn.
ATTRIBUTE_MEASURED: Ki (µM)
Write it as a number; the unit µM goes unstated.

# annotated cases, reported Ki shown
[
  {
    "COMPOUND": "CC(O)CCNc1nc2c(C(=O)N[C@H]3C[C@H]4CCC[C@@H](C3)N4C)cccc2o1 (stereo partly drawn) [Example 61, Hydrochloride]",
    "Ki, µM": 0.0199
  },
  {
    "COMPOUND": "CN1[C@@H]2CCC[C@H]1C[C@@H](NC(=O)c1cccc3oc(N4CCNCC4)nc13)C2 [Example 21, Dihydrochloride]",
    "Ki, µM": 0.0746
  }
]

Now, please, on to the next compound.
Suppose we examine the compound C[C@H]1CN(C(=O)C2CCCC2)C[C@H](C)N1c1nc2c(C(=O)NC3CC4CCCC(C3)N4C)cccc2o1 (stereo partly drawn) [Example 133, Hydrochloride] ; what Ki value has been reported?
0.0018

====

molecular target: 5-HT3 (Homo sapiens, UniProt P46098); test: Compound affinity for the human 5-HT3 receptor (Assay B), SPA radioligand binding with [9-methyl-3H]BRL-43694; set-up: purchased Perkin Elmer; conditions: Assay B (method B unless otherwise annotated); read-out: 5-HT3 Ki
Structures can show the parent of a compound that is named as a salt.
ATTRIBUTE_MEASURED: pKi
Just so you know, pKi here is -log10 of the concentration in molar units; reply with that number alone.

[
  {
    "MOLECULE": "CN1[C@@H]2CCC[C@H]1C[C@@H](NC(=O)c1cccc3oc(NCCCO)nc13)C2 [Example 40, Hydrochloride]",
    "pKi": 8.11
  }
]

Suppose we examine the molecule CN1CC2CC(NC(=O)c3cccc4oc(N5CCOCC5)nc34)CC(C1)N2C (stereo not drawn) [Example 43, Hydrochloride] ; what pKi value has been reported?
6.32

Do the same for CCN(C)c1nc2c(C(=O)N[C@@H]3CN4CCC3CC4)cccc2o1 [Example 83, Hydrochloride] please
8.17

Do the same for CN(C)c1nc2c(C(=O)N[C@@H]3CN4CCC3CC4)cccc2o1 [Example 8, Hydrochloride] please
7.74

Do the same for CN(C)CCN(C)c1nc2c(C(=O)N[C@H]3C[C@H]4CCC[C@@H](C3)N4C)cccc2o1 [Example 31, hydrochloride] please
6.97

Do the same for O=C(N[C@@H]1CN2CCC1CC2)c1cccc2oc(Nc3ccncc3)nc12 [Example 28, Dihydrochloride] please
8.28

====

Parameter: Ki. Scope: all listed entries.
biological target: 5-HT3 (Homo sapiens); experiment: Compound affinity for the human 5-HT3 receptor (Assay B), SPA radioligand binding with [9-methyl-3H]BRL-43694; design: purchased Perkin Elmer; settings: Assay B (method B unless otherwise annotated); read-out: 5-HT3 Ki
Counter-ions that a name gives are not always drawn.
Write it as a number; the unit nM goes unstated.

# annotated cases, reported Ki shown
[
  {
    "COMPOUND": "CN1CCN(c2nc3c(C(=O)N[C@H]4C[C@H]5CCC[C@@H](C4)N5C)cccc3o2)CC1 [Example 1, Dihydrochloride]",
    "ASSAYED_SYSTEM": "5-HT3 (Homo sapiens)",
    "Ki, nM": 85
  },
  {
    "COMPOUND": "C[C@H]1CS(=O)(=O)C[C@H](C)N1c1nc2c(C(=O)NC3CC4CCCC(C3)N4C)cccc2o1 (some centres unmarked) [Example 123, Hydrochloride]",
    "ASSAYED_SYSTEM": "5-HT3 (Homo sapiens)",
    "Ki, nM": 57
  },
  {
    "COMPOUND": "C[C@@H]1CN(c2nc3c(C(=O)NC4CC5CCCC(C4)N5C)cccc3o2)[C@@H](C)CN1 (relative stereo) [Example 60, Hydrochloride]",
    "ASSAYED_SYSTEM": "5-HT3 (Homo sapiens)",
    "Ki, nM": 10.5
  },
  {
    "COMPOUND": "Cc1nc[nH]c1CNC(=O)c1cc(Cl)cc2oc(N)nc12",
    "ASSAYED_SYSTEM": "5-HT3 (Homo sapiens)",
    "Ki, nM": 127
  },
  {
    "COMPOUND": "CN1CCN(c2nc3c(C(=O)N[C@H]4C[C@H]5CCC[C@@H](C4)N5C)cc(Cl)cc3o2)CC1 [Example 58, Hydrochloride]",
    "ASSAYED_SYSTEM": "5-HT3 (Homo sapiens)",
    "Ki, nM": 11.9
  },
  {
    "COMPOUND": "C[C@H]1CN(CC2CC2)C[C@H](C)N1c1nc2c(C(=O)NC3CC4CCCC(C3)N4C)cccc2o1 (some centres unmarked) [Example 119, Hydrochloride]",
    "ASSAYED_SYSTEM": "5-HT3 (Homo sapiens)",
    "Ki, nM": 6.6
  },
  {
    "COMPOUND": "CC(C)[C@@H]1COCCN1c1nc2c(C(=O)NC3CC4CCCC(C3)N4C)cccc2o1 (some centres unmarked) [Example 152, Hydrochloride]",
    "ASSAYED_SYSTEM": "5-HT3 (Homo sapiens)",
    "Ki, nM": 75
  },
  {
    "COMPOUND": "CN1[C@@H]2CCC[C@H]1C[C@@H](NC(=O)c1cccc3oc(N4CCOCC4)nc13)C2 [Example 9, Hydrochloride]",
    "ASSAYED_SYSTEM": "5-HT3 (Homo sapiens)",
    "Ki, nM": 42
  },
  {
    "COMPOUND": "C[C@H]1C(=O)NCCN1c1nc2c(C(=O)NC3CC4CCCC(C3)N4C)cccc2o1 (some centres unmarked) [Example 98, Hydrochloride]",
    "ASSAYED_SYSTEM": "5-HT3 (Homo sapiens)",
    "Ki, nM": 14.6
  },
  {
    "COMPOUND": "O=C(NC1CN2CCC1CC2)c1cccc2oc(NCC(F)(F)F)nc12 (centres unmarked) [Example 109, Hydrochloride]",
    "ASSAYED_SYSTEM": "5-HT3 (Homo sapiens)",
    "Ki, nM": 47.9
  }
]

Suppose we examine the compound C[C@H]1CN(C(=O)C2CCCCC2)C[C@H](C)N1c1nc2c(C(=O)NC3CC4CCCC(C3)N4C)cccc2o1 (some centres unmarked) [Example 132, Hydrochloride] ; what Ki value has been reported?
1.9

Do the same for CN1[C@@H]2CCC[C@H]1C[C@@H](NC(=O)c1cccc3oc(N4CCC5(CC4)OCCO5)nc13)C2 [Example 91, Hydrochloride] please
14.5

Do the same for CN1[C@@H]2CCC[C@H]1C[C@@H](NC(=O)c1cccc3oc(NC4CNC4)nc13)C2 [Example 16, Dihydrochloride] please
179

Do the same for C[C@H]1CN(C)C(=O)[C@H](C)N1c1nc2c(C(=O)NC3CC4CCCC(C3)N4C)cccc2o1 (some centres unmarked) [Example 120, Hydrochloride] please
1.9

Do the same for CN1[C@@H]2CCC[C@H]1C[C@@H](NC(=O)c1cccc3oc(N4CCN(c5ncccn5)CC4)nc13)C2 [Example 42, Hydrochloride] please
11
